system_tested: IL-23 (human, p19/p40 heterodimer) (Homo sapiens, UniProt Q9NPF7;P29460 SEQ:20-189,SEQ:23-328)
Sequence (Q9NPF7 20-189, chain 1 of 2): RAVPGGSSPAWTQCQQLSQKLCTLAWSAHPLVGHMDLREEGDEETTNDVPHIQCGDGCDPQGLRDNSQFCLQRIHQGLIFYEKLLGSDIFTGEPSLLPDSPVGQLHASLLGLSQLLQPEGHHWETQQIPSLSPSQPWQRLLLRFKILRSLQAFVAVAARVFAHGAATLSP
Sequence (P29460 23-328, chain 2 of 2): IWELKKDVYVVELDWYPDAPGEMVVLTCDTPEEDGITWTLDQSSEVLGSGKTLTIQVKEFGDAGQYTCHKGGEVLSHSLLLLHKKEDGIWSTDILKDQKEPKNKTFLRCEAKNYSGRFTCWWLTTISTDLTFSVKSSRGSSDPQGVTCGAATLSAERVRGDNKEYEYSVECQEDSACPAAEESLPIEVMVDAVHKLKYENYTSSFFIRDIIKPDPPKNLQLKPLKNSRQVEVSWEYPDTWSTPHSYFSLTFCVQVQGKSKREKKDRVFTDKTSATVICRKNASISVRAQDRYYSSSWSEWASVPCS
procedure_summary: filter; +tRNA
condition_notes: tags: R&D Systems, carrier free
Kd values by entry
Supply the numeric figure in nM, leaving out any unit text.

binder	scale_unit	Kd
UAAUUGGGGAGUGCGGGCGGGGGGUCGAUCG (mixed, deoxy A,G; 2'-OMe C,U) [ARC796]	nM	106
GGCAAGGUAAUUGGGAAGUGUGGGCGGGG (mixed, deoxy A,G; 2'-OMe C,U) [ARC891]	nM	177
ACAGGCAAGGUAAUUGGGGAGUGCGGGCGGGGUGU (mixed, deoxy A,G; 2'-OMe C,U) [ARC889]	nM	115
CCAGGCAAGUAAUUGGGGAGUGCGGGCGGGGUGG (mixed, deoxy A,G; 2'-OMe C,U) [ARC980]	nM	139

Then there is this binder:
Enquiry: Field request: Kd | item: CCAGGCAAGGUAAUUGGGGAGUGCGGGCGGGGUGG (mixed, deoxy A,G; 2'-OMe C,U) [ARC890]
Return: 114
